experiment: NCI Yeast Anticancer Drug Screen. Data for the bub3 strain (AID 167); settings: S. cerevisiae bub3 mutant strain, at 3.7 µM, active compounds read high
This is part of a sample that, as a whole, favours compounds with a hit. Of some 79,000 tested, about 15% had one in any assay.
Exercise: state measured growth inhibition for each of the molecules provided.
Answers are plain numbers, in %.

Can you give me growth inhibition for all of these, one by one?
1. O=c1oc2ccccc2c(O)c1C(c1ccc2c(c1)Cc1ccccc1-2)c1c(O)c2ccccc2oc1=O
2. CC1=C2C(=C[C@@](C)(CO)[C@@H]2O)C(=O)[C@](C)(O)C12CC2
3. O=P(Oc1ccc(Cl)cc1)(Oc1ccc(Cl)cc1)N1CC1

Output:
1. -2
2. -5
3. -2

Can you give me growth inhibition for all of these, one by one?
1. NC1=NCC(c2ccc(Cl)cc2)O1 (stereo unspecified)
2. CC1CC(Br)C(=O)O1 (stereo unspecified)
3. Cc1cc[n+](C2=C(Nc3cccc(C(F)(F)F)c3)C(=O)c3ccccc3C2=O)cc1
4. Cc1ccc2nc3sc(=O)sc3nc2c1
5. O=C(c1ccccc1)C1C(c2ccccc2[N+](=O)[O-])N1C1CCCCC1 (stereo unspecified)
6. CC(C)CC(NC(=O)C(N)C(C)C)C(=O)NC(CCCCN)C(=O)Nc1ccc(N(CCCl)CCCl)cc1 (stereo unspecified)
7. COC(COC(=O)N1CCN(C=O)CC1)C1=C(N2CC2)C(=O)C(C)=C(N2CC2)C1=O (stereo unspecified)
8. O=[N+]([O-])c1oc2ccc3ccccc3c2c1CCO

Output:
1: -9; 2: 22; 3: 5; 4: 14; 5: -2; 6: -16; 7: -3; 8: -3

====

experiment: NCI Yeast Anticancer Drug Screen. Data for the wt1 strain (AID 149);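 note: 0% = growth of vehicle-treated wt1 cultures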; details: S. cerevisiae wt1 strain (SPY 50644) growth inhibition; at 100.0 µM; active compounds read high
Compounds without any hit were thinned out: in the full panel of roughly 79,000, 15% have a hit.
Exercise: state measured growth inhibition for each of the compounds provided.
One number for each entry, in %.

Study these solved cases before continuing.
Input: Consider the compound shown here: O=C1c2ccc3ccccc3c2CCC1N1CCCCC1 (stereo not given) What is its recorded growth inhibition?
Output: 97

Input: Consider the compound shown here: CCC1(O)C(=O)OCc2c1cc1n(c2=O)Cc2cc3ccccc3nc2-1 (stereo not given) What is its recorded growth inhibition?
Output: 13

Input: Consider the compound shown here: C[N+](C)(C)CC1CCCC(C[N+](C)(C)C)C1=O (stereo not given) What is its recorded growth inhibition?
Output: 98

Can you give me growth inhibition for all of these, one by one?
1. O=P(CCCCP(=O)(c1ccccc1)c1ccccc1)(c1ccccc1)c1ccccc1.[Cl][Sn]([Cl])([c]1ccccc1)[c]1ccccc1
2. COc1cc(O)c2c(O)c3c(c4c2c1[C@]1(C4)C(C)=CCCC1(C)C)[C@H](O)[C@@]1(O)CC(=O)C(C(N)=O)=C(O)[C@@]1(O)C3=O
3. CCc1cccc(C(C)C)c1NC1=C([n+]2ccc(C)cc2)C(=O)c2ccccc2C1=O
4. O=C(Nc1cc(Cl)ccc1Cl)C(Cl)(Cl)Cl

Output:
1: 96; 2: 93; 3: 6; 4: 6

====

Assay: NCI Yeast Anticancer Drug Screen. Data for the mgt1 strain (AID 153)
Conditions: S. cerevisiae mgt1 mutant growth inhibition; at 3.7 µM; active compounds read high
Procedure: Growth inhibition of yeast strains with defined genetic alterations is measured as a screen for potential anti-cancer activity. Selected strains with alterations in DNA damage repair or cell cycle control were exposed to compounds and growth inhibition was measured relative to vehicle treated controls. The strain used in this assay is mgt1
The panel holds about 79,000 compounds, 15% with a hit somewhere; the sample as a whole holds those more often.
Exercise: state measured growth inhibition for each of the compounds provided.
Give bare numbers, in %.

Study these solved cases before continuing.
Input: Consider the compound shown here: C[CH2][Sn]([CH2]C)([O]S(C)(=O)=O)[O]S(C)(=O)=O What is its recorded growth inhibition?
Output: 0

Input: Consider the compound shown here: CCCCCCCCCC[Se]C#N What is its recorded growth inhibition?
Output: 0

Input: Consider the compound shown here: COC(=O)C1=C(C(=O)OC)C2OC1c1cc3ccccc3cc12 What is its recorded growth inhibition?
Output: 44

Can you give me growth inhibition for all of these, one by one?
1. CCN(CC)CCBr
2. CC1CCC2(NC1)OC1CC3C4CCC5CC(OC6OC(CO)C(OC7OC(CO)C(O)C(OC8OCC(O)C(O)C8O)C7OC7OC(CO)C(O)C(O)C7O)C(O)C6O)CCC5(C)C4CCC3(C)C1C2C (stereo not given)

Output:
0
-10

====

assay: NCI Yeast Anticancer Drug Screen. Data for the rad18 strain (AID 177); details: S. cerevisiae rad18 mutant growth inhibition; at 3.7 µM; active compounds read high
This is part of a sample that, as a whole, favours compounds with a hit. Of some 79,000 tested, about 15% had one in any assay.
Label rule, in plain words: growth inhibition of 20% and up is condition met, under 20% is condition not met.

Input: Hi, just wondering whether CC1(C)N=C(N)N=C(N)N1c1cccc(N)c1.[Sn] shows growth inhibition of 20% or higher.
Output: condition not met

Input: Hi, just wondering whether CCC1(O)C(=O)OCc2c1cc1n(c2=O)Cc2cc3ccccc3nc2-1 (stereo unspecified) shows growth inhibition of 20% or higher.
Output: condition not met

Input: Hi, just wondering whether CCOP(=S)(S)OCC.[Pd] shows growth inhibition of 20% or higher.
Output: condition met

Input: Hi, just wondering whether Oc1cccc2nc3ccccc3nc12 shows growth inhibition of 20% or higher.
Output: condition not met

Input: Hi, just wondering whether CN(N=O)C(=O)NNC(=O)N(C)N=O shows growth inhibition of 20% or higher.
Output: condition met

Input: Hi, just wondering whether O=P(CCCCP(=O)(c1ccccc1)c1ccccc1)(c1ccccc1)c1ccccc1.[Cl][Sn]([Cl])([c]1ccccc1)[c]1ccccc1 shows growth inhibition of 20% or higher.
Output: condition not met

====

assay: NCI Yeast Anticancer Drug Screen. Data for the mlh1 strain (AID 171);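 note: 0% = growth of vehicle-treated control cultures of the same strain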; conditions: S. cerevisiae mlh1 strain growth inhibition; at 33.0 µM
The panel holds about 79,000 compounds, 15% with a hit somewhere; the sample as a whole holds those more often. Activity calls are given as the source filed them. Rule as the data show it: active = growth inhibition above about 70%; inactive = the rest.
Classes to choose from: 1.0 = active, 0.0 = inactive

Answered examples (3):
Input: Dear all, I need the recorded test outcome for O=C1NC(=S)NC(=O)C1=Cc1ccc([N+](=O)[O-])o1 , thank you.
Output: 0.0

Input: Dear all, I need the recorded test outcome for Br[Se]c1ccccn1 , thank you.
Output: 1.0

Input: Dear all, I need the recorded test outcome for CCC1(OC(=O)CN)C(=O)OCc2c1cc1n(c2=O)Cc2cc3ccccc3nc2-1 (configuration not stated) , thank you.
Output: 1.0

Others:
Input: Dear all, I need the recorded test outcome for c1ccc(N=c2nc(N3CCOCC3)ss2)cc1 , thank you.
Output: 1.0

Input: Dear all, I need the recorded test outcome for Nc1ccc(Cl)cc1C(=O)c1ccccc1 , thank you.
Output: 0.0

Input: Dear all, I need the recorded test outcome for CCC(=O)OC1CCn2c1nc1c2C(=O)C(C)=C(N2CC2)C1=O (configuration not stated) , thank you.
Output: 0.0

Input: Dear all, I need the recorded test outcome for CSc1ccccc1[As](C)C , thank you.
Output: 1.0

====

assay: NCI Yeast Anticancer Drug Screen. Data for the bub3 strain (AID 167); conditions: S. cerevisiae bub3 mutant strain, at 50.0 µM, active compounds read high
About 79,000 compounds went through this panel and 15% of them were active in at least one assay; those are over-represented in the sample as a whole.
Exercise: state measured growth inhibition for each of the molecules provided.
Numbers only, in %.

Study these solved cases before continuing.
Input: Consider the molecule shown here: O=P(Oc1ccc(Cl)cc1)(Oc1ccc(Cl)cc1)N1CC1 What is its recorded growth inhibition?
Output: 34.4

Input: Consider the molecule shown here: O=[N+]([O-])[O-].O=[N+]([O-])[O-].[Au].[Au].c1ccc([P-]c2ccccc2)cc1.c1ccc([P-]c2ccccc2)cc1 What is its recorded growth inhibition?
Output: 88.9

Can you give me growth inhibition for all of these, one by one?
1. CC(Cc1ccccc1)N(C)Cc1nc(C2CCC([N+](=O)[O-])O2)no1 (stereo not given)
2. CCC[CH2][Sn]([Cl])([CH2]C)[O][Sn]([Cl])([CH2]C)[CH2]CCC (stereo not given)
3. O=C(CI)c1ccc[nH]1

Output:
1: 90; 2: 89.2; 3: 99.4

====

experiment: NCI Yeast Anticancer Drug Screen. Data for the mec2-1 strain (AID 157); details: S. cerevisiae mec2-1 strain, at 5.0 µM (retest, dose inferred, filed as 0.5), active compounds read high
About 79,000 compounds went through this panel and 15% of them were active in at least one assay; those are over-represented in the sample as a whole.
Label rule, in plain words: growth inhibition of 40% and up is t, under 40% is f.

Answered examples (5):
Input: Hi, just wondering whether Fc1ccc(NP(=S)(Nc2ccc(F)cc2F)Nc2ccc(F)cc2F)c(F)c1 shows growth inhibition of 40% or higher.
Output: t

Input: Hi, just wondering whether ClCCN(CCCl)c1ccc(CN2CCCN(Cc3ccc(N(CCCl)CCCl)cc3Cl)C2c2ccncc2)c(Cl)c1 shows growth inhibition of 40% or higher.
Output: f

Input: Hi, just wondering whether CC[CH2][Sn]([CH2]CC)([CH2]CC)[CH2]CCBr shows growth inhibition of 40% or higher.
Output: t

Input: Hi, just wondering whether COC(=O)C(C)(C)[n+]1c(C)cc(C)cc1C shows growth inhibition of 40% or higher.
Output: f

Input: Hi, just wondering whether CCC1(OC(=O)CN)C(=O)OCc2c1cc1n(c2=O)Cc2cc3ccccc3nc2-1 (stereo unspecified) shows growth inhibition of 40% or higher.
Output: t

Now look at this one.
Input: Hi, just wondering whether [Cl][Hg][Cl].c1ccc(CSc2ccccc2)cc1 shows growth inhibition of 40% or higher.
Output: t

Reference source for all entries: PubChem BioAssay (NCI)
